assay-readout: melting point

compound=CC(C)(C)OC(=O)c1ncn2c1[C@@H]1CCN1C(=O)c1c(I)cccc1-2 measured_value="249 to 250 °C"
compound="CCOC(=O)C1=C(C)NC(CF)=C(C(=O)OCC)C1c1ccccc1C(F)(F)F (stereo not given)" measured_value="84 to 86 °C"
compound=CCc1ccccc1Sc1c(O)cc(-c2ccccc2)oc1=O measured_value="190 to 192 °C"
compound=CCCNC(=O)C(C)(C)n1cc(C)c(-c2ccccc2)n1 measured_value="47 to 50 °C"
compound=O=C(Nn1c(=O)c(=O)[nH]c2cc(C(F)(F)F)c([N+](=O)[O-])cc21)C(F)(F)F measured_value="> 250 °C"
compound="O=C1c2ccccc2C(=O)N1CC(=O)N1c2ccccc2N(Cc2ccc3ccccc3n2)C(=O)[C@H]2CCC[C@H]21 (relative stereo)" measured_value="258 to 260 °C"
compound=O=C(O)c1ccccc1Oc1ccccc1O measured_value="147 to 149 °C"
compound=O=C(Cc1ccccc1)Nc1cnc2ccccc2c1O measured_value="253 to 255 °C"
compound=NCCc1ccc(OCc2ccccc2)c(NC(N)=O)c1 measured_value="176 to 180 °C"
compound=O=S(=O)(c1ccccc1)c1cc(Br)nc(Br)c1 measured_value="134 to 135 °C"

###

Listed molecules paired with reported melting point
assay-readout: melting point

molecule="O=C(O)Cc1csc(NC(=O)C(CC2CCCC2)c2ccc(Cl)c(Cl)c2)n1 (stereo not given)" measured_value="100 to 102 °C"
molecule=Cc1c(Cc2cccc(C(F)(F)F)c2)oc2c(-c3cc(C(=O)NCCC#N)ccn3)cccc12 measured_value="200 to 201 °C"
molecule="CC(O)(c1ccccc1)c1ccncc1 (stereo not given)" measured_value="141 to 144 °C"
molecule=CCCCOc1ccccc1-c1ccc(C(N)=O)c(=O)[nH]1 measured_value="190 to 191 °C"
molecule=O=C(O)c1cc(-c2ccccc2)ccc1O measured_value="214 to 216 °C"
molecule=Cc1ccc(S(=O)(=O)NCc2ccc(C(=O)CBr)cc2)cc1 measured_value="116 to 117 °C"
molecule=COC(=O)c1ccc(C(=O)NS(=O)(=O)c2ccc(CCNC(=O)c3ccccc3)cc2)cn1 measured_value="228 to 230 °C"
molecule=O=C(C=CC(=O)Nc1ccccc1)NCc1cc(Br)cc2[nH]c(=O)c(=O)[nH]c12 measured_value="> 250 °C"
molecule="COc1ccc(C2(C)Cc3cc(O)c(Cl)c(Cl)c3C2=O)cc1 (stereo not given)" measured_value="149 to 156 °C"
molecule=FC(F)(F)c1ccc(-c2cc(C(F)(F)F)n3ncc(-c4cccnc4)c3n2)cc1 measured_value="163 °C"

###

assay-readout: melting point

molecule=COC(=O)c1ccc(COc2cccc(-c3c(C(=O)c4ccccc4)cnc4c(C(F)(F)F)cccc34)c2)c(OC)c1 assay_readout="melting point" measured_value="60 to 63 °C"
molecule="CCCCCCCCOC(=O)NCC1CCC(CNC(=O)OCCCCCCCC)CC1 (stereo not given)" assay_readout="melting point" measured_value="120 to 122 °C"
molecule=C=CCn1c(=O)ccc2cc(F)c(-n3c(=O)cc(C(F)(F)F)n(C)c3=O)cc21 assay_readout="melting point" measured_value="178 to 179 °C"
molecule=CCOC(=O)C(=O)Nc1ccc(C#N)c(C#N)c1 assay_readout="melting point" measured_value="194 °C"
molecule="CCCCCCCN1CCN(C(=O)C2CCC(c3cccnc3)N2)CC1 (stereo not given)" assay_readout="melting point" measured_value="138 to 143 °C"
